test: in vitro; conditions: dog, MDCK-MDR1
Description: Apparent permeability across apical to basolateral side in MDCKII-MDR1 cells at 75 uM incubated for 2 hrs
property_label: Papp A→B at 2 h, 75 µM (×10⁻⁶ cm/s)

smiles_representation=O=C(CNc1ccc(F)cc1)Nc1ccc(-c2nc(-c3ccnc(Nc4ccc(OC(F)(F)F)cc4)c3)no2)cc1 property_label="Papp A→B at 2 h, 75 µM" uom="×10⁻⁶ cm/s" recorded_value=17.2

* * *

assay: Toxicity in C57BL/6 mouse assessed as median lethal dose administered intragastrically for 7 days; details: in vivo, po, time 7 day
property_label: LD50 at 168 h (mg/kg)

smiles_representation=O=C(CNc1ccc(F)cc1)Nc1ccc(-c2nc(-c3ccnc(Nc4ccc(OC(F)(F)F)cc4)c3)no2)cc1 property_label="LD50 at 168 h" recorded_value=75.4

Reference source for all entries: ChEMBL document CHEMBL5143529
